The reported measurements were obtained from patent US20050209278A1.

Form field: pKi (one value per entry).
Test target: MMP-14 (Homo sapiens, UniProt P50281)
Construct: The catalytic domain enzyme was expressed in E. coli inclusion bodies, solubilized in urea; made in house
Assay explanation: In vitro MMP inhibition, Ki determination (fluorogenic substrate II)
Format: biochemical
Details: value not in parenthesis; read-out: MMP-14 Ki
On this scale, pKi is minus log10 of a concentration expressed in M (mol/L).

- Compound: "C=CCCOC(=O)N1CCC(C(=O)NO)(S(=O)(=O)N2CCN(c3ccc(OCCCC)cc3)CC2)CC1 [Example 101]"
  Recorded measurement: 5.36
- Compound: "O=C(c1cccnc1)N1CCC(C(=O)NO)(S(=O)(=O)N2CCN(c3ccc(OCCCC(F)(F)F)cc3)CC2)CC1 [Example 122]"
  Recorded measurement: 5.51
- Compound: "CCCc1ccc(N2CCN(S(=O)(=O)C3(C(=O)NO)CCOCC3)CC2)nc1 [Example 136]"
  Recorded measurement: 6.80
- Compound: "CCCCCc1ccc(N2CCN(S(=O)(=O)C3(C(=O)NO)CCN(c4ncccn4)CC3)CC2)nc1 [Example 95]"
  Recorded measurement: 6.22
- Compound: "CCCCOc1ccc(N2CCN(S(=O)(=O)C3(C(=O)NO)CCSCC3)CC2)cc1 [Example 232]"
  Recorded measurement: 5.45

Exam item: Fill in: pKi of COCCN1CCC(C(=O)NO)(S(=O)(=O)N2CCN(c3ccccc3)CC2)CC1 [Example 195] is ___
Marked response: 6.38

Exam item: Fill in: pKi of O=C(NO)C1(S(=O)(=O)N2CCN(c3ccc(OCCCC(F)(F)F)cc3F)CC2)CCOCC1 [Example 81] is ___
Marked response: 5.61

Exam item: Fill in: pKi of CCCCOc1ccc(N2CCN(S(=O)(=O)C3(C(=O)NO)CCN(C(=O)N4CCCCC4)CC3)CC2)cc1 [Example 243] is ___
Marked response: 5.69

Exam item: Fill in: pKi of COCCN1CCC(C(=O)NO)(S(=O)(=O)N2CCN(c3ccc(CCCCC(C)C)cc3)CC2)CC1 [Example 191] is ___
Marked response: 5.17

Exam item: Fill in: pKi of CC(C)Cc1ccc(N2CCN(S(=O)(=O)C3(C(=O)NO)CCOCC3)CC2)c(F)c1 [Example 213] is ___
Marked response: 5.37

Exam item: Fill in: pKi of COCCN1CCC(C(=O)NO)(S(=O)(=O)N2CCN(c3ccc(OCC(F)(F)F)cc3)CC2)CC1 [Example 119] is ___
Marked response: 5.36

Exam item: Fill in: pKi of CCCCc1cnc(N2CCN(S(=O)(=O)C3(C(=O)NO)CCOCC3)CC2)nc1 [Example 105] is ___
Marked response: 5.78
